RUN DESCRIPTION: Tmax in ICR mouse at 20 mg/kg, ip by LC-MS/MS analysis
Assay type: ADME, organism-based
MEASUREMENT SETUP: in vivo
ENDPOINT NAME: Tmax (h)
Numbers only, in h.

Tmax measured on `Nc1ccccc1NC(=O)c1ccc(CNC(=O)c2n[nH]cc2NC(=O)c2c(Cl)cccc2Cl)cc1` = 2

Next:
Tmax measured on `Nc1ccccc1NC(=O)Cc1ccc(NC(=O)c2n[nH]cc2NC(=O)c2c(Cl)cccc2Cl)cc1` = 1

###

ASSAY TARGET: Histone deacetylase 2 (Homo sapiens)
Sequence (Q92769 whole entry): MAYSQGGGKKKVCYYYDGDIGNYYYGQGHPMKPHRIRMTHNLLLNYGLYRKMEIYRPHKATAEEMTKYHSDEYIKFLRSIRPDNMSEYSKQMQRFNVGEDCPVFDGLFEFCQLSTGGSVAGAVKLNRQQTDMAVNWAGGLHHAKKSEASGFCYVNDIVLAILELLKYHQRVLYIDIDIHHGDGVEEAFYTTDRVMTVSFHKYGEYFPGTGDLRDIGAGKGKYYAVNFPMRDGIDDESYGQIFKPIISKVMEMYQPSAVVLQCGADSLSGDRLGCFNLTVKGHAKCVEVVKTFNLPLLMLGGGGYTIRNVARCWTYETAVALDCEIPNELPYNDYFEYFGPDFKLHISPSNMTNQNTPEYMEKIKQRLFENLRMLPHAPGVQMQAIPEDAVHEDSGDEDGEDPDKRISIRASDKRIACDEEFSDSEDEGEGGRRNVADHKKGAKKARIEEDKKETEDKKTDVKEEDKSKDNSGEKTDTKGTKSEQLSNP
RUN DESCRIPTION: Inhibition of human recombinant HDAC2 preincubated for 10 mins followed by addition of substrate fluor De Lys green measured after 30 mins by fluorescent plate reader analysis
ENDPOINT NAME: pIC50
Numbers only, as −log10 of the molar value.

Check out these entries, answers already filled in.
pIC50 measured on `Nc1ccccc1NC(=O)c1ccc(CNC(=O)c2n[nH]cc2NC(=O)c2c(Cl)cccc2Cl)cc1` = 9.60

pIC50 measured on `Nc1ccccc1NC(=O)Cc1ccc(NC(=O)c2n[nH]cc2NC(=O)c2c(Cl)cccc2Cl)cc1` = 9.62

Let us move to another entry and its pIC50.
pIC50 measured on `Nc1ccc(F)cc1NC(=O)c1ccc(CNC(=O)/C=C/c2cccnc2)cc1` = 7.64

###

Test system: NCI-H460
RUN DESCRIPTION: cells
Type: functional
MEASUREMENT SETUP: Homo sapiens, time 72 hrs, read-out: GI
Please use 1 (yes) whenever inhibition of growth at 2 µM is not below 10%, and 0 (no) whenever it is.

Examples with answers:
Given `Nc1ccccc1NC(=O)c1ccc(CNC(=O)c2n[nH]cc2NC(=O)c2c(Cl)cccc2Cl)cc1` , state whether its inhibition of growth at 2 µM is at least 10%. 1 (yes)

Given `Nc1ccccc1NC(=O)c1ccc(CNC(=O)c2n[nH]cc2NC(=O)c2c(F)cccc2F)cc1` , state whether its inhibition of growth at 2 µM is at least 10%. 1 (yes)

Given `Nc1ccccc1NC(=O)Cc1ccc(NC(=O)c2n[nH]cc2NC(=O)c2ccccc2F)cc1` , state whether its inhibition of growth at 2 µM is at least 10%. 0 (no)

Given `O=C(CCCNC(=O)c1n[nH]cc1NC(=O)c1c(F)cccc1F)NO` , state whether its inhibition of growth at 2 µM is at least 10%. 1 (yes)

Given `O=C(NO)c1ccc(CNC(=O)c2n[nH]cc2NC(=O)c2ccccc2)cc1` , state whether its inhibition of growth at 2 µM is at least 10%. 1 (yes)

Given `COc1ccccc1C(=O)Nc1c[nH]nc1C(=O)Nc1ccc(CC(=O)NO)cc1` , state whether its inhibition of growth at 2 µM is at least 10%. 0 (no)

Next:
Given `O=C(Cc1ccc(NC(=O)c2n[nH]cc2NC(=O)c2ccccc2)cc1)NO` , state whether its inhibition of growth at 2 µM is at least 10%. 1 (yes)

Given `Nc1ccccc1NC(=O)c1ccc(CNC(=O)c2n[nH]cc2NC(=O)c2c(F)cccc2Cl)cc1` , state whether its inhibition of growth at 2 µM is at least 10%. 1 (yes)

Given `O=C(NO)c1ccc(CNC(=O)c2n[nH]cc2NC(=O)c2ccccc2Cl)cc1` , state whether its inhibition of growth at 2 µM is at least 10%. 1 (yes)
